Molecular target: Gastrin/cholecystokinin type B receptor (Rattus norvegicus) (UniProt P30553)
Sequence (P30553 whole entry, the tested form may be a part): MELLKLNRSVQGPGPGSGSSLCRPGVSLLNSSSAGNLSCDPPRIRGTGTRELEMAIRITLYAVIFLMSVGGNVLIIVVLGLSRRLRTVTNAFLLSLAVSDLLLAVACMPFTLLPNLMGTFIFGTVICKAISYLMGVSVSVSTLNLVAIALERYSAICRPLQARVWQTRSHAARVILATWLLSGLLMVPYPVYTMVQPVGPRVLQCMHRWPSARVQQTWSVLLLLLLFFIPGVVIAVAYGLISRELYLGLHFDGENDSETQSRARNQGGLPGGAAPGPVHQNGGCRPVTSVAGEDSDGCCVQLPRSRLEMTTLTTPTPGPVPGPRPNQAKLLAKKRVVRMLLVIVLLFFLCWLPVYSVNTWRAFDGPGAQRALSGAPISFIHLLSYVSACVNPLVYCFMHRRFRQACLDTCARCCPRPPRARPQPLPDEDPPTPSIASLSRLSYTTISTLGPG
Test: Inhibition of gastrin stimulated acid secretion in in situ perfused rat stomach
Type: functional, tissue-based
Where a SMILES comes first, the peptide text is derived from it.
MEASURED PARAMETER: ED50 (µmol/kg)

MOLECULE | UNIT ABBREV | VALUE OBSERVED
CC(C)C[C@H](NC(=O)[C@H](Cc1c[nH]c2ccccc12)NC(=O)OC(C)(C)C)C(=O)N[C@@H](CC(=O)O)C(=O)N(C)C (HELM PEPTIDE1{[CC(C)(C)OC(=O)[*:2]].W.L.D.[CN(C)[*:1]]}$$$$V2.0) | µmol/kg | 10
CSCC[C@H](NC(=O)[C@H](Cc1c[nH]c2ccccc12)NC(=O)CNC(=O)OC(C)(C)C)C(=O)N[C@@H](CC(=O)O)C(N)=O (HELM PEPTIDE1{[CC(C)(C)OC(=O)[*:2]].G.W.M.D.[am]}$$$$V2.0) | µmol/kg | 8
CC(C)CC(NC(=O)[C@H](Cc1c[nH]c2ccccc12)NC(=O)OC(C)(C)C)C(=O)N[C@@H](CC(=O)O)C(N)=O (stereo partly drawn) | µmol/kg | 15
CCCC[C@H](NC(=O)[C@H](Cc1c[nH]c2ccccc12)NC(=O)OC(C)(C)C)C(=O)N[C@@H](CC(=O)O)C(N)=O (HELM PEPTIDE1{[CC(C)(C)OC(=O)[*:2]].W.[Nle].D.[am]}$$$$V2.0) | µmol/kg | 14
CC(C)C[C@H](NC(=O)[C@H](Cc1c[nH]c2ccccc12)NC(=O)OC(C)(C)C)C(=O)N[C@@H](C)C(N)=O (HELM PEPTIDE1{[CC(C)(C)OC(=O)[*:2]].W.L.A.[am]}$$$$V2.0) | µmol/kg | 150
O=C(N[C@@H](Cc1c[nH]c2ccccc12)C(=O)O)c1ccc(Cl)cc1 | µmol/kg | 170
CC(C)C[C@H](NC(=O)[C@H](Cc1c[nH]c2ccccc12)NC(=O)OC(C)(C)C)C(=O)N[C@H](CC(=O)O)C(N)=O | µmol/kg | 17
CC(C)(C)OC(=O)N[C@@H](Cc1c[nH]c2ccccc12)C(=O)N[C@@H](Cc1ccccc1)C(=O)N[C@@H](CC(=O)O)C(N)=O (HELM PEPTIDE1{[CC(C)(C)OC(=O)[*:2]].W.F.D.[am]}$$$$V2.0) | µmol/kg | 26.5

====

compounds and their reported ED50
Target: Gastrin/cholecystokinin type B receptor (Rattus norvegicus) (UniProt P30553)
Test: Inhibition of gastrin stimulated acid secretion in in situ perfused rat stomach
Assay type: functional, tissue-based
Where a SMILES comes first, the peptide text is derived from it.

COMPOUND | SUBJECT OF TEST | UNIT ABBREV | ED50
CC[C@H](C)[C@H](NC(=O)[C@H](Cc1c[nH]c2ccccc12)NC(=O)OC(C)(C)C)C(=O)N[C@@H](CC(=O)O)C(N)=O (HELM PEPTIDE1{[CC(C)(C)OC(=O)[*:2]].W.I.D.[am]}$$$$V2.0) | Gastrin/cholecystokinin type B receptor (Rattus norvegicus) (UniProt P30553) | µmol/kg | 25
CC(C)C[C@H](NC(=O)[C@H](Cc1c[nH]c2ccccc12)NC(=O)OC(C)(C)C)C(=O)N[C@@H](CCC(=O)O)C(N)=O (HELM PEPTIDE1{[CC(C)(C)OC(=O)[*:2]].W.L.E.[am]}$$$$V2.0) | Gastrin/cholecystokinin type B receptor (Rattus norvegicus) (UniProt P30553) | µmol/kg | 11
C[C@H](NC(=O)[C@H](Cc1c[nH]c2ccccc12)NC(=O)OC(C)(C)C)C(=O)N[C@@H](CC(=O)O)C(N)=O (HELM PEPTIDE1{[CC(C)(C)OC(=O)[*:2]].W.A.D.[am]}$$$$V2.0) | Gastrin/cholecystokinin type B receptor (Rattus norvegicus) (UniProt P30553) | µmol/kg | 30
CC(C)(C)OC(=O)N[C@@H](Cc1c[nH]c2ccccc12)C(=O)NCC(=O)N[C@@H](CC(=O)O)C(N)=O (HELM PEPTIDE1{[CC(C)(C)OC(=O)[*:2]].W.G.D.[am]}$$$$V2.0) | Gastrin/cholecystokinin type B receptor (Rattus norvegicus) (UniProt P30553) | µmol/kg | 60
CC(C)C[C@H](NC(=O)[C@H](Cc1c[nH]c2ccccc12)NC(=O)OC(C)(C)C)C(=O)N[C@@H](CC(N)=O)C(=O)O (HELM PEPTIDE1{[CC(C)(C)OC(=O)[*:2]].W.L.N}$$$$V2.0) | Gastrin/cholecystokinin type B receptor (Rattus norvegicus) (UniProt P30553) | µmol/kg | 19
CC(C)(C)OC(=O)N[C@@H](Cc1c[nH]c2ccccc12)C(=O)N1CCC[C@H]1C(=O)N[C@@H](CC(=O)O)C(N)=O (HELM PEPTIDE1{[CC(C)(C)OC(=O)[*:2]].W.P.D.[am]}$$$$V2.0) | Gastrin/cholecystokinin type B receptor (Rattus norvegicus) (UniProt P30553) | µmol/kg | 15
CC(C)C[C@H](NC(=O)[C@H](Cc1c[nH]c2ccccc12)NC(=O)OC(C)(C)C)C(=O)N[C@@H](CC(=O)O)C(=O)O (HELM PEPTIDE1{[CC(C)(C)OC(=O)[*:2]].W.L.D}$$$$V2.0) | Gastrin/cholecystokinin type B receptor (Rattus norvegicus) (UniProt P30553) | µmol/kg | 27.3
CCCN(CCC)C(=O)C(CCC(=O)O)NC(=O)c1ccccc1 (stereo not given) | Gastrin/cholecystokinin type B receptor (Rattus norvegicus) (UniProt P30553) | µmol/kg | 350
CC(C)C[C@H](NC(=O)[C@H](Cc1c[nH]c2ccccc12)NC(=O)OCc1ccccc1)C(=O)N[C@@H](CC(=O)O)C(N)=O (HELM PEPTIDE1{[O=C(OCc1ccccc1)[*:2]].W.L.D.[am]}$$$$V2.0) | Gastrin/cholecystokinin type B receptor (Rattus norvegicus) (UniProt P30553) | µmol/kg | 38
CSCC[C@H](NC(=O)[C@H](Cc1c[nH]c2ccccc12)NC(=O)OC(C)(C)C)C(=O)N[C@@H](CC(=O)O)C(N)=O (HELM PEPTIDE1{[CC(C)(C)OC(=O)[*:2]].W.M.D.[am]}$$$$V2.0) | Gastrin/cholecystokinin type B receptor (Rattus norvegicus) (UniProt P30553) | µmol/kg | 14
